- test_name: Dark cytotoxicity, MTT assay, AsPC-1
- Format: cell-based
- test_settings: human, AsPC-1 pancreatic cancer cells; 12.5 μM photosensitizer, 3 h, no light, 72 h incubation; read-out: Cell viability, Dark Cytotoxicity against AsPC-1
reported_metric: viability at 12.5 μM
Write the numeric value and append its unit.

compound: C=Cc1c(C)c2cc3nc(c(CC(=O)OC)c4[nH]c(cc5nc(cc1[nH]2)C(C)=C5CC)c(C)c4C(=O)NCCCOCCOCCOCCCNC(=O)CCCC(=O)Oc1ccc(/C=C/C(=O)CC(=O)/C=C/c2ccc(O)c(OC)c2)cc1OC)[C@@H](CCC(=O)OC)[C@@H]3C [Compound 16, Chlorine e6-curcumin Conjugate (16)]
viability at 12.5 μM: 103%
--
compound: C=Cc1c(C)c2cc3nc(c(CC(=O)OC)c4[nH]c(cc5nc(cc1[nH]2)C(C)=C5CC)c(C)c4C(=O)NCCOCCOCCNC(=O)CCCC(=O)Oc1ccc(/C=C/C(=O)CC(=O)/C=C/c2ccc(O)c(OC)c2)cc1OC)C(CCC(=O)OC)C3C (stereo not shown) [Compound 13, Chlorine e6-curcumin Conjugate (13)]
viability at 12.5 μM: 106%
--
compound: C=Cc1c(C)c2cc3nc(c(CC(=O)OC)c4[nH]c(cc5nc(cc1[nH]2)C(C)=C5CC)c(C)c4C(=O)NCCCCCCNC(=O)CCCC(=O)Oc1ccc(/C=C/C(=O)CC(=O)/C=C/c2ccc(O)c(OC)c2)cc1OC)C(CCC(=O)OC)C3C (stereo not shown) [Compound 10, Chlorine e6-curcumin Conjugate (10)]
viability at 12.5 μM: 98.5%

Now turn to the next compound.
query: Data request, read-out viability at 12.5 μM, for C=Cc1c(C)c2cc3nc(c(CC(=O)O)c4[nH]c(cc5nc(cc1[nH]2)C(C)=C5CC)c(C)c4C(=O)O)[C@@H](CCC(=O)O)[C@@H]3C [Compound 3, Chlorin e6]
result: 100%
